- experiment_notes: Maximum tolerated dose in mice
- test_conditions: mouse, in vivo, ip
property_name: MTD

Req: I have this compound here, Cc1cc(=O)[nH]c2c1C(=O)c1c(C)cc(=O)n(C)c1C2=O [DNQ, Deoxynyboquinone, reference compound] , and I need its recorded MTD.
Resp: ~5 mg/kg

----------
- experiment_notes: Solubility in organic solvents
- Type: physicochemical
- test_conditions: organic solvent or mixture, thermodynamic from solid; THF; Table 1
# solubility per record follows
State the answer as a number, implicitly in mM.

Req: I have this compound here, CCCc1cc(=O)n(C)c2c1C(=O)c1c(C)cc(=O)[nH]c1C2=O [Compound 4-9] , and I need its recorded solubility.
Resp: 4.6

Req: I have this compound here, CCc1cc(=O)[nH]c2c1C(=O)c1c(C)cc(=O)n(C)c1C2=O [Compound 4-11] , and I need its recorded solubility.
Resp: 3.9

Req: I have this compound here, CCc1cc(=O)[nH]c2c1C(=O)c1c(CC)cc(=O)n(C)c1C2=O [Compound 4-29] , and I need its recorded solubility.
Resp: 6.2

Req: I have this compound here, CCCCCCn1c2c(c(C)cc1=O)C(=O)c1c(C)cc(=O)[nH]c1C2=O [Compound 9-257] , and I need its recorded solubility.
Resp: 27

Req: I have this compound here, Cc1cc(=O)[nH]c2c1C(=O)c1c(C)cc(=O)n(C)c1C2=O [DNQ, Deoxynyboquinone, reference compound] , and I need its recorded solubility.
Resp: 0.42

Req: I have this compound here, CCCn1c2c(c(C)cc1=O)C(=O)c1c(C)cc(=O)[nH]c1C2=O [Compound 10-41] , and I need its recorded solubility.
Resp: 3.4

Req: I have this compound here, Cc1cc(=O)n(C)c2c1C(=O)c1c(C)cc(=O)n(C)c1C2=O [SCH, reference compound] , and I need its recorded solubility.
Resp: 3.7

Req: I have this compound here, Cc1cc(=O)[nH]c2c1C(=O)c1c(C)cc(=O)n(CCC(C)(C)C)c1C2=O [Compound 9-251] , and I need its recorded solubility.
Resp: 23
